Recorded Ki by entry
Target: delta-opioid receptor (Homo sapiens)
Sequence (P41143 whole entry): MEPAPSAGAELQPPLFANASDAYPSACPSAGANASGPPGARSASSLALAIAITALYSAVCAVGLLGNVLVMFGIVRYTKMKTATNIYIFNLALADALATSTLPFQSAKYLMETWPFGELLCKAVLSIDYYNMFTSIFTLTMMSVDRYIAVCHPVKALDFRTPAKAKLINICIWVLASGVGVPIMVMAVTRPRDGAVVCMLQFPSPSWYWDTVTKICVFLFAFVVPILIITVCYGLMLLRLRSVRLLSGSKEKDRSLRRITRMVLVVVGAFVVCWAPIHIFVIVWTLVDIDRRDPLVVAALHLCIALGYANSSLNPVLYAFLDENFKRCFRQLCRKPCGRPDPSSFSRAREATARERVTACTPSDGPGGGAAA
Assay: Radioligand binding, [3H]deltorphin-2 displacement, CHO cell membranes
Design: purchased; host or cells: CHO cells (membranes)
Non-standard residues stand in square brackets, D forms with d. Residues, ends and D or L forms follow the SMILES beside them. d(β3hA) = C[C@@H](N)CC(=O)O

COMPOUND	TARGET OF ASSAY	COMPARISON SYMBOL	Ki (nM)
Cc1cc(O)cc(C)c1C[C@H](N)C(=O)N1CCCC[C@@H]1C(=O)N[C@@H](Cc1ccccc1)C(=O)N[C@@H](Cc1ccccc1)C(N)=O [analog 3, Dmt-(R)-Pip-Phe-Phe-NH2]	delta-opioid receptor (Homo sapiens)	=	37
NC(=O)[C@H](Cc1ccccc1)NC(=O)[C@@H](CNC(=O)[C@@H]1CCCN1C(=O)[C@@H](N)Cc1ccc(O)cc1)Cc1cccc2ccccc12 [analog 10, Tyr-Pro-(R)-β ^ 2 -1-Nal-Phe-NH2]	delta-opioid receptor (Homo sapiens)	>	1000
Cc1cc(O)cc(C)c1C[C@H](N)C(=O)N1CCC[C@H]1C(=O)N[C@@H](Cc1ccccc1)C(=O)N[C@@H](Cc1ccccc1)C(N)=O	delta-opioid receptor (Homo sapiens)	=	560
NC(=O)[C@H](Cc1ccccc1)NC(=O)[C@H](Cc1ccccc1)NC(=O)[C@H]1CCCCN1C(=O)[C@@H](N)Cc1ccc(O)cc1 [analog 2, Tyr-(R)-Pip-Phe-Phe-NH2]	delta-opioid receptor (Homo sapiens)	=	682
NC(=O)[C@H](Cc1ccccc1)NC(=O)C[C@@H](Cc1cccc2ccccc12)NC(=O)[C@@H]1CCCN1C(=O)[C@@H](N)Cc1ccc(O)cc1 [analog 12, Tyr-Pro-(R)-β ^ 3 -1-Nal-Phe-NH2]	delta-opioid receptor (Homo sapiens)	>	1000
C[C@H](CC(=O)N[C@@H](Cc1ccccc1)C(=O)N[C@@H](Cc1ccccc1)C(N)=O)NC(=O)[C@@H](N)Cc1ccc(O)cc1 [analog 8, Tyr-(R)-β ^ 3 -Ala-Phe-Phe-NH2] (H-Y[d(β3hA)]FF-NH2; N-terminus assumed)	delta-opioid receptor (Homo sapiens)	>	1000
Cc1cc(O)cc(C)c1C[C@H](N)C(=O)NC[C@@H](C)C(=O)N[C@@H](Cc1ccccc1)C(=O)N[C@@H](Cc1ccccc1)C(N)=O [analog 7, Dmt-(R)-β ^ 2 -Ala-Phe-Phe-NH2]	delta-opioid receptor (Homo sapiens)	=	571

====

Assay: Enzymatic degradation in rat brain homogenate
Assay type: in vitro ADME
Details: pH 7.4, 37°C, ln2/k, read-out: t1/2, degradation half-life
Recorded half-life at 0.25 mM by entry

MOLECULE	UNITS	half-life at 0.25 mM
NC(=O)[C@H](Cc1ccccc1)NC(=O)[C@H](Cc1ccccc1)NC(=O)[C@@H]1CCCN(C(=O)[C@@H](N)Cc2ccc(O)cc2)C1 [analog 4, Tyr-(R)-Nip-Phe-Phe-NH2]	h	1.09
C[C@H](CNC(=O)[C@@H](N)Cc1ccc(O)cc1)C(=O)N[C@@H](Cc1ccccc1)C(=O)N[C@@H](Cc1ccccc1)C(N)=O [analog 6, Tyr-(R)-β ^ 2 -Ala-Phe-Phe-NH2]	h	1.11

====

Recorded Ki by entry
Biological target: human recombinant mu opioid receptor (Homo sapiens, UniProt P35372)
Construct: purchased; host or cells: CHO cells (membranes)
Sequence (P35372 whole entry): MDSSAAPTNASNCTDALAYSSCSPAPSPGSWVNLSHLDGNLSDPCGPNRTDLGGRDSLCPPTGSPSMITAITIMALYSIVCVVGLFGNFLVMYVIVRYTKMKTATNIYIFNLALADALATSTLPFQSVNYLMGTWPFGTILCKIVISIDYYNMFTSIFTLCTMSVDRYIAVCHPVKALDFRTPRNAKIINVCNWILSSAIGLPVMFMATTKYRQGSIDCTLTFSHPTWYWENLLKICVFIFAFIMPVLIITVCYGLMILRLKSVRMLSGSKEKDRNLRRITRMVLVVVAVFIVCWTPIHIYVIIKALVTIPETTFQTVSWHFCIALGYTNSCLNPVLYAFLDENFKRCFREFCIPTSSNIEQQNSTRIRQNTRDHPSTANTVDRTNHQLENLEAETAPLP
Test: Radioligand binding, [3H]DAMGO displacement, CHO cell membranes

MOLECULE	Ki (nM)
Cc1cc(O)cc(C)c1C[C@H](N)C(=O)N1CCCC[C@@H]1C(=O)N[C@@H](Cc1ccccc1)C(=O)N[C@@H](Cc1ccccc1)C(N)=O [analog 3, Dmt-(R)-Pip-Phe-Phe-NH2]	3.92
Cc1cc(O)cc(C)c1C[C@H](N)C(=O)N1CCC[C@@H](C(=O)N[C@@H](Cc2ccccc2)C(=O)N[C@@H](Cc2ccccc2)C(N)=O)C1 [analog 5, Dmt-(R)-Nip-Phe-Phe-NH2]	0.14
NC(=O)[C@H](Cc1ccccc1)NC(=O)[C@H](Cc1ccccc1)NC(=O)[C@H]1CCCCN1C(=O)[C@@H](N)Cc1ccc(O)cc1 [analog 2, Tyr-(R)-Pip-Phe-Phe-NH2]	17.7

Reference source for all entries: paper PMC9998502
